Tested on: Escherichia coli TOP10;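 also: peptides expressed intracellularly from a pBAD plasmid library in pooled LB shake-flask culture, induced with 0.3% L-arabinose, DNA abundance read by NGS, three biological replicates, DESeq2 with apeglm shrinkage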
Assay: shrunken log2 fold change of peptide-encoding DNA abundance (4.5 h post-induction vs induction); higher = less antimicrobial activity (less host growth inhibition)
Conditions: time post-induction: 4.5 h; library: site-saturation at positions 5, 18, 19, 20
Answer Not fulfilled if shrunken log2 fold change is under -0.004, and Fulfilled if it is -0.004 or more.

Input: Would you say RRIRHRPPRLPRPRPRPHNYPRP shows shrunken log2 fold change at minimum -0.004?
Output: Not fulfilled

Input: Hi, just wondering whether RRIRMRPPRLPRPRPRPHIPPRP shows shrunken log2 fold change of -0.004 or higher.
Output: Not fulfilled

Input: Please check the record RRIRTRPPRLPRPRPRPFHYPRP and state if its shrunken log2 fold change is at or above -0.004.
Output: Not fulfilled

Input: Is reported shrunken log2 fold change greater than or equal to -0.004 here: RRIRGRPPRLPRPRPRPQIKPRP
Output: Fulfilled

Input: Please check the record RRIRWRPPRLPRPRPRPQYAPRP and state if its shrunken log2 fold change is at or above -0.004.
Output: Not fulfilled

Input: shrunken log2 fold change >= -0.004 for RRIRTRPPRLPRPRPRPSYHPRP ?
Output: Not fulfilled

Input: Is reported shrunken log2 fold change greater than or equal to -0.004 here: RRIRPRPPRLPRPRPRPTGQPRP
Output: Fulfilled

Input: Confirm if shrunken log2 fold change reported for the sequence RRIRHRPPRLPRPRPRPWVGPRP is -0.004 or above.
Output: Fulfilled

Input: Check if shrunken log2 fold change >= -0.004 (inclusive). Item: RRIRERPPRLPRPRPRPSRDPRP
Output: Not fulfilled

Input: Hello, I need to know if RRIRRRPPRLPRPRPRPLNPPRP has measured shrunken log2 fold change not below -0.004. Thanks!
Output: Fulfilled

Input: Confirm if shrunken log2 fold change reported for the sequence RRIRCRPPRLPRPRPRPVNIPRP is -0.004 or above.
Output: Not fulfilled

Input: Hello, I need to know if RRIRSRPPRLPRPRPRPIQTPRP has measured shrunken log2 fold change not below -0.004. Thanks!
Output: Not fulfilled

Input: Assess whether reported shrunken log2 fold change for RRIRIRPPRLPRPRPRPRNIPRP sits at -0.004 or higher.
Output: Not fulfilled

Input: Is shrunken log2 fold change for RRIRYRPPRLPRPRPRPHNQPRP at or above -0.004?
Output: Not fulfilled

Input: Please tell me: is the sequence RRIRYRPPRLPRPRPRPGPKPRP at or over -0.004 in terms of shrunken log2 fold change?
Output: Fulfilled

Input: Form field: shrunken log2 fold change at least -0.004? Entry: RRIRGRPPRLPRPRPRPSQEPRP
Output: Fulfilled

Input: Is shrunken log2 fold change for RRIRGRPPRLPRPRPRPGVLPRP at or above -0.004?
Output: Fulfilled

Input: Textbook exercise: given the entry RRIRCRPPRLPRPRPRPAAPPRP , state whether its shrunken log2 fold change is greater than or equal to -0.004.
Output: Fulfilled

Input: # check: shrunken log2 fold change of RRIRTRPPRLPRPRPRPKMMPRP is greater than or equal to -0.004
Output: Fulfilled

Input: Please check the record RRIRLRPPRLPRPRPRPSQVPRP and state if its shrunken log2 fold change is at or above -0.004.
Output: Not fulfilled

Input: Textbook exercise: given the entry RRIRCRPPRLPRPRPRPKPKPRP , state whether its shrunken log2 fold change is greater than or equal to -0.004.
Output: Fulfilled

Input: In plain terms: is recorded shrunken log2 fold change at least -0.004 for RRIRFRPPRLPRPRPRPAYMPRP ?
Output: Not fulfilled

Input: State whether the measured shrunken log2 fold change reaches -0.004, counting equality as reaching it, for RRIRGRPPRLPRPRPRPSSNPRP
Output: Fulfilled

Input: Tell me whether shrunken log2 fold change is at least -0.004 here: RRIRQRPPRLPRPRPRPQWNPRP
Output: Not fulfilled

Input: Does the reported shrunken log2 fold change for RRIRRRPPRLPRPRPRPYRFPRP fall at or above the -0.004 mark?
Output: Not fulfilled

Input: Could you tell me if the measured shrunken log2 fold change of RRIRTRPPRLPRPRPRPALRPRP reaches -0.004 or more?
Output: Fulfilled

Input: Given RRIRNRPPRLPRPRPRPNPFPRP , state whether its shrunken log2 fold change is at least -0.004.
Output: Not fulfilled

Input: Determine whether this sequence has shrunken log2 fold change no lower than -0.004: RRIRARPPRLPRPRPRPEVEPRP
Output: Fulfilled

Input: Quick check: does RRIRQRPPRLPRPRPRPWWYPRP have shrunken log2 fold change greater than or equal to -0.004?
Output: Not fulfilled

Input: Check the entry RRIRWRPPRLPRPRPRPHVTPRP : does shrunken log2 fold change equal or exceed -0.004?
Output: Not fulfilled

Input: Threshold query (shrunken log2 fold change >= -0.004) on RRIRKRPPRLPRPRPRPPYDPRP
Output: Not fulfilled

Input: Does shrunken log2 fold change meet or surpass -0.004 for RRIRVRPPRLPRPRPRPCHEPRP ?
Output: Not fulfilled

Input: Could you verify whether the entry RRIRKRPPRLPRPRPRPYHSPRP shows shrunken log2 fold change of no less than -0.004?
Output: Fulfilled

Input: Threshold query (shrunken log2 fold change >= -0.004) on RRIRRRPPRLPRPRPRPYFVPRP
Output: Not fulfilled

Input: API: above_or_equal(metric=shrunken log2 fold change, cutoff=-0.004) for item RRIRARPPRLPRPRPRPHTTPRP
Output: Not fulfilled

Input: Decide: shrunken log2 fold change of RRIRKRPPRLPRPRPRPMPNPRP >= -0.004?
Output: Fulfilled

Input: Decide: is the reported value of shrunken log2 fold change for RRIRNRPPRLPRPRPRPTVTPRP equal to or greater than -0.004?
Output: Fulfilled

Input: Could you please find out whether RRIRCRPPRLPRPRPRPCQPPRP has shrunken log2 fold change that meets -0.004 or exceeds it?
Output: Not fulfilled

Input: Does shrunken log2 fold change meet or surpass -0.004 for RRIRGRPPRLPRPRPRPSDGPRP ?
Output: Not fulfilled

Input: Quick check: does RRIRRRPPRLPRPRPRPNHCPRP have shrunken log2 fold change greater than or equal to -0.004?
Output: Not fulfilled

Input: Test whether the sequence RRIRGRPPRLPRPRPRPESEPRP records shrunken log2 fold change of -0.004 or higher.
Output: Fulfilled

Input: Please indicate if the recorded shrunken log2 fold change for RRIRVRPPRLPRPRPRPEWIPRP meets or exceeds -0.004.
Output: Not fulfilled

Input: # bool: shrunken log2 fold change of RRIRARPPRLPRPRPRPTVTPRP >= -0.004
Output: Fulfilled

Input: Check the entry RRIRRRPPRLPRPRPRPAAFPRP : does shrunken log2 fold change equal or exceed -0.004?
Output: Fulfilled

Input: Record RRIRSRPPRLPRPRPRPDTWPRP ; criterion: shrunken log2 fold change no lower than -0.004. Met?
Output: Not fulfilled

Input: Check this sequence for shrunken log2 fold change at or above -0.004: RRIRARPPRLPRPRPRPYMSPRP
Output: Fulfilled

Input: Please tell me: is the sequence RRIRHRPPRLPRPRPRPSHKPRP at or over -0.004 in terms of shrunken log2 fold change?
Output: Not fulfilled

Input: Does the reported shrunken log2 fold change for RRIRVRPPRLPRPRPRPAYYPRP fall at or above the -0.004 mark?
Output: Not fulfilled

Input: Check if shrunken log2 fold change >= -0.004 (inclusive). Item: RRIRPRPPRLPRPRPRPGAMPRP
Output: Fulfilled

Input: Please indicate if the recorded shrunken log2 fold change for RRIRDRPPRLPRPRPRPQYSPRP meets or exceeds -0.004.
Output: Not fulfilled

Input: Is it the case that RRIRSRPPRLPRPRPRPPNSPRP has shrunken log2 fold change reaching or exceeding -0.004?
Output: Not fulfilled

Input: # check: shrunken log2 fold change of RRIRFRPPRLPRPRPRPYWIPRP is greater than or equal to -0.004
Output: Not fulfilled

Input: Confirm if shrunken log2 fold change reported for the sequence RRIRVRPPRLPRPRPRPEKRPRP is -0.004 or above.
Output: Not fulfilled

Origin of values: the supplement of paper PMC9112550
